Source: the RNAGym collection of RNA variant scans (doi:10.7554/elife.80360)

B1: HDV Ribozyme (parent)
chain: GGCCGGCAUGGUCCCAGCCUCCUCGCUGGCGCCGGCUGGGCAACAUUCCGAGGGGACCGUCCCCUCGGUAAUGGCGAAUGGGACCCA

- Variants of: B1
- protocol.description: self-cleavage, relative activity (ratio to wild type); higher = more cleavage; co-transcriptional
Returns one of met or not met; met when self-cleavage is >= 0.9.

input.sequence	class
GGCCGGCAUGGUCCCAGCCCUCUCGCUGGCGCCGGCUGGGCAACAUUCCGAGGGGACCGUCCCCUCGGUAAUGGCGAAUGGGACCCA [U20C C21U]	not met

query: Please check the record GGCCGGGAUGGUCCCAGCCUCCUCGCUGGCGCCGGCUGGGCAACAUUCCGAGGGGACCGUCCCCUCGGUAAUGGCGAAUCGGACCCA [C7G G80C] and state if its self-cleavage is at or above 0.9.
result: not met
